# Assay procedure: Cytotoxicity, MTS assay
# Run parameters: human, MDA-MB-435 breast carcinoma cells, Cytotoxicity IC50 (μM), MDA-MB-435 cells
Parameter: IC50 at 48 h (µM)
Numeric only. Scale: µM

INSERT INTO results (substance_smiles, parameter, numeric_value) VALUES
  ('Cc1ccc(Br)c(-c2ccc(C=C3C(=O)NC(=S)NC3=O)o2)c1', 'IC50 at 48 h', 20.6);

Q: What does the data say about its IC50 at 48 h? Entry: CN1C(=O)NC(=O)/C(=C/c2ccc(-c3ccc([N+](=O)[O-])cc3Br)o2)C1=O
Result: 14.2

Q: What does the data say about its IC50 at 48 h? Entry: COc1ccc(N2C(=O)NC(=O)/C(=C/C/C=C/c3ccccc3)C2=O)c(OC)c1
Result: 1.6

Q: What does the data say about its IC50 at 48 h? Entry: O=C1NC(=O)N(c2ccccc2)C(=O)/C1=C\C/C=C/c1ccccc1[N+](=O)[O-]
Result: 9.5

* * *

# System: MDA-MB-435 breast carcinoma cells
# Assay procedure: Cytotoxicity, MTS assay
# Run parameters: read-out: Cytotoxicity IC50, MDA-MB-435 cells, 48 hours
Parameter: pIC50
Keep it numeric: pIC50 is minus log10 of the concentration in mol/L.

INSERT INTO assay_data (substance_smiles, assayed_system, parameter, numeric_value) VALUES
  ('COc1ccc(N2C(=O)NC(=O)/C(=C/C/C=C/c3ccccc3)C2=O)c(OC)c1', 'MDA-MB-435 breast carcinoma cells', 'pIC50', 5.79);

// moving on: another record for pIC50
Q: What does the data say about its pIC50? Entry: O=C1NC(=O)N(c2ccccc2)C(=O)/C1=C\C/C=C/c1ccccc1[N+](=O)[O-]
Result: 5.02
